assay: chemical genetic growth profiling, strain panel (AID 1159580);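 also: tested at 20 µM; growth read once vehicle control cultures reached saturation at 30 °C; 1 = growth at the plate median or of vehicle wells; lower values mean less growth of the strain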; conditions: S. cerevisiae deletion strains, growth OD, locus YPR119W, strain clb2, active compounds read low
Hit rate of the full screen: of about 5,500 compounds, about 2,000 (36%) were called active. Not shown: some 18% with an inconclusive outcome. The list shows a part of the results.
Cut-off 1 on normalized growth: below means 1.0, at or above means 0.0.

[
  {
    "molecule": "Oc1cccc(O)c1",
    "label": 1.0
  },
  {
    "molecule": "CCCSc1ccc2nc(NC(=O)OC)[nH]c2c1",
    "label": 1.0
  },
  {
    "molecule": "CC1=CC(=O)c2ccccc2C1=O",
    "label": 1.0
  },
  {
    "molecule": "CC(C)=CC1C(C(=O)O)C1(C)C (stereo not given)",
    "label": 1.0
  },
  {
    "molecule": "O=P1(N(CCCl)CCCl)NCCCO1 (stereo not given)",
    "label": 0.0
  }
]

###

assay: chemical genetic growth profiling, strain panel (AID 1159580);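 also: tested at 20 µM; growth read once vehicle control cultures reached saturation at 30 °C; 1 = growth at the plate median or of vehicle wells; lower values mean less growth of the strain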; settings: S. cerevisiae deletion strains, growth OD, locus YBL105C, strain PKC1
The campaign covered roughly 5,500 compounds. About 2,000 (36%) were called active. Inconclusive results (about 18%) are left out. No stated cut-off is given here; in the data, active means normalized growth mostly below about 0.91 (no sharp cut-off); inconclusive means no clear call, values can overlap the other calls; inactive means mostly above about 0.92. Some of the results follow.
Outcome codes: active, inactive

[
  {
    "molecule": "NC(=S)N/N=C1/CCCc2ccccc21",
    "label": "inactive"
  },
  {
    "molecule": "Clc1ccc(SCc2ccsc2-c2ncns2)cc1",
    "label": "inactive"
  },
  {
    "molecule": "OC(COc1ccc(F)cc1)(c1ccc(Cl)cc1)c1ccc(Cl)cc1",
    "label": "inactive"
  },
  {
    "molecule": "C#CCSC1=NNC(c2ccccn2)S1 (stereo not drawn)",
    "label": "inactive"
  },
  {
    "molecule": "Cc1ccc2nc(-c3ccc4c(c3)OCCO4)cn2c1",
    "label": "inactive"
  },
  {
    "molecule": "N#CSCC(=O)c1ccccc1",
    "label": "active"
  },
  {
    "molecule": "Cc1nn(-c2cccc(Cl)c2)c2oc(=O)cc(C(F)(F)F)c12",
    "label": "inactive"
  },
  {
    "molecule": "CC(=O)c1ccc(Cl)c(N=Cc2cc(Cl)cc(Cl)c2O)c1",
    "label": "inactive"
  },
  {
    "molecule": "O=C1c2cccc3c(Sc4ccccc4)ccc(c23)C(=O)N1NCCO",
    "label": "inactive"
  },
  {
    "molecule": "O=C(CSC1=NNC(c2ccccn2)S1)Nc1ccccc1 (stereo not drawn)",
    "label": "inactive"
  },
  {
    "molecule": "Brc1ccc(-c2csc(-c3ccncc3)n2)cc1",
    "label": "inactive"
  },
  {
    "molecule": "Clc1ccc(CN2CCN(c3cccc4[nH]ccc34)CC2)cc1Cl",
    "label": "inactive"
  },
  {
    "molecule": "O=C(Nc1cccc(Cl)c1)O/N=C1\\CCCc2occc21",
    "label": "inactive"
  },
  {
    "molecule": "COC(=O)C1=C(Nc2ccccc2NS(=O)(=O)c2ccc(C(F)(F)F)cc2Cl)CSC1",
    "label": "inactive"
  },
  {
    "molecule": "Cc1onc(-c2c(Cl)cccc2Cl)c1C(=O)O/N=C(/N)Cc1ccc(C(C)(C)C)cc1",
    "label": "inactive"
  },
  {
    "molecule": "Cc1onc(-c2c(F)cccc2Cl)c1/C(N)=N\\OC(=O)c1ccc(C(C)(C)C)cc1",
    "label": "inactive"
  },
  {
    "molecule": "N/C(Cc1cccc2ccccc12)=N/OC(=O)c1ccc(Cl)cc1",
    "label": "inactive"
  },
  {
    "molecule": "Cc1c(C)c(C)c(C(=O)c2ccc(N=Cc3cc(Cl)cc(Cl)c3O)cc2)c(C)c1C",
    "label": "inactive"
  }
]
